Each recorded value in this set is attributed to patent US8148391B2.

Below: a set of entries, each annotated with reported IC50.
# system tested: c-Met (cytoplasmic domain) (Homo sapiens)
# Construct: 10 ng/mL c-Met (cytoplasmic domain, Invitrogen Corporation #PV3143); purchased Invitrogen Corporation PV3143
# Sequence (P08581 956-1390 limits assumed): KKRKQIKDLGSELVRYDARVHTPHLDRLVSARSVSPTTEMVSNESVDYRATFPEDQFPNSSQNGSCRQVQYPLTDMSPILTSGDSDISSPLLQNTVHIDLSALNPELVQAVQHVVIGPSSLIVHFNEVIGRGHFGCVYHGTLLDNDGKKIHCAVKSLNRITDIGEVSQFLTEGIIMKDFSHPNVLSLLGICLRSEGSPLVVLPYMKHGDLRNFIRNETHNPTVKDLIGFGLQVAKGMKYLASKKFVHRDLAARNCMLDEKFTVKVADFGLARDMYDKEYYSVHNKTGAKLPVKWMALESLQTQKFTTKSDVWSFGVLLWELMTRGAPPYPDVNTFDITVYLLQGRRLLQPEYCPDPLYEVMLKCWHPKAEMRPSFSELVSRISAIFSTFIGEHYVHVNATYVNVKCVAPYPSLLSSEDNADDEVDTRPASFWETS
# assay notes: c-Met Kinase Assay (same methods as for ALK, with modifications)
# Type: biochemical
# measurement conditions: c-Met kinase inhibition, 1 μM ATP; read-out: cMet Activity

CN1CCc2ccc(Nc3ncc(Cl)c(Nc4ccccc4-c4cc[nH]n4)n3)cc2CC1=O [Example 1825] | > 10000 nM
COc1cc2c(cc1Nc1ncc(Cl)c(Nc3ccccc3S(=O)(=O)N(C)C)n1)CCN(CC(C)O)CC2 (stereo not drawn) [Example 1547] | 1000 to 10000 nM
CCN1CCN(CC(=O)OCCOC)C(=O)c2ccc(Nc3ncc(Cl)c(Nc4c(F)cccc4C(=O)NC)n3)cc21 [Example 1458] | < 100 nM

Please report the measured IC50 for CNC(=O)c1sc(Br)c(C)c1Nc1nc(Nc2ccc3c(c2)CCOC(=O)N3C)ncc1Cl [Example 1771] tested on c-Met (cytoplasmic domain) (Homo sapiens).
< 100 nM

Please report the measured IC50 for Cc1nnc(-c2ccccc2Nc2nc(Nc3ccc4c(c3)CCOC(=O)N4C)ncc2Cl)o1 [Example 1786] tested on c-Met (cytoplasmic domain) (Homo sapiens).
< 100 nM

Please report the measured IC50 for C#CCNC(=O)c1cccc(F)c1Nc1nc(Nc2ccc3c(c2)N(C(=O)CN)CCCC3(C)C)ncc1Cl [Example 1619] tested on c-Met (cytoplasmic domain) (Homo sapiens).
< 100 nM

Please report the measured IC50 for CC(=O)NCc1ccccc1Nc1nc(Nc2ccc3c(c2)CCOC(=O)N3C)ncc1Cl [Example 1793] tested on c-Met (cytoplasmic domain) (Homo sapiens).
1000 to 10000 nM

Please report the measured IC50 for CCNC(=O)c1ccccc1Nc1nc(Nc2cc3c(cc2OC)CN(Cc2ccccc2)CC(=O)N3)ncc1Cl [Example 1653] tested on c-Met (cytoplasmic domain) (Homo sapiens).
1000 to 10000 nM

Please report the measured IC50 for CNC(=O)c1ccc(Cl)c(Cl)c1Nc1nc(Nc2ccc3c(c2)CCOC(=O)N3C)ncc1Cl [Example 1757] tested on c-Met (cytoplasmic domain) (Homo sapiens).
< 100 nM

Please report the measured IC50 for CNC(=O)c1cccc(F)c1Nc1nc(Nc2ccc3c(c2)CCN(CCOC)CC3)ncc1Br [Example 1471] tested on c-Met (cytoplasmic domain) (Homo sapiens).
< 100 nM

Please report the measured IC50 for COc1cc(N2CCOCC2)ccc1Nc1nc(Nc2ccc3c(c2)N(CCN(C)C)CCCC3(C)C)ncc1Cl [Example 1641] tested on c-Met (cytoplasmic domain) (Homo sapiens).
1000 to 10000 nM
